test: Solubility of compounds in various solvents; type: physicochemical; settings: 17 °C, organic solvent or mixture; DMF, 17-22° C.; read-out: Observation: solubility / saturation concentration (S.C.)

Test smiles | solubility
COC(=O)N[C@@H](Cc1ccccc1)C(=O)N[C@@H](Cc1ccc([N+](=O)[O-])cc1)c1csc(-c2cccs2)n1 | ≥ 100 mg/mL

----------
assay: Solubility of compounds in various solvents; type: physicochemical; details: 17 °C, organic solvent or mixture; MeOH, 17-22° C.; read-out: Observation: solubility / saturation concentration (S.C.)

Test smiles | solubility
COC(=O)N[C@@H](Cc1ccccc1)C(=O)N[C@@H](Cc1ccc(NS(=O)(=O)[O-])cc1)c1csc(-c2cccs2)n1.[Na+] | ~30 mg/mL

----------
assay: Solubility of compounds in various solvents; format: physicochemical; conditions: 17 °C, organic solvent or mixture; THF, 17-22° C.; read-out: Observation: solubility / saturation concentration (S.C.)

Test smiles | solubility
COC(=O)N[C@@H](Cc1ccccc1)C(=O)N[C@@H](Cc1ccc([N+](=O)[O-])cc1)c1csc(-c2cccs2)n1 | ~5000 µg/mL
COC(=O)N[C@@H](Cc1ccccc1)C(=O)N[C@@H](Cc1ccc(NS(=O)(=O)[O-])cc1)c1csc(-c2cccs2)n1.[Na+] | < 40000 µg/mL

----------
assay: Solubility of compounds in various solvents; type: physicochemical; settings: 60 °C, organic solvent or mixture; 2-MeTHF, 60-65° C.; read-out: Observation: solubility / saturation concentration (S.C.)

Test smiles | solubility
COC(=O)N[C@@H](Cc1ccccc1)C(=O)N[C@@H](Cc1ccc([N+](=O)[O-])cc1)c1csc(-c2cccs2)n1 | ~15 mg/mL

----------
assay: Solubility of compounds in various solvents; assay type: physicochemical; details: 17 °C, organic solvent or mixture; Toluene, 17-22° C.; read-out: Observation: solubility / saturation concentration (S.C.)

Test smiles | solubility
COC(=O)N[C@@H](Cc1ccccc1)C(=O)N[C@@H](Cc1ccc([N+](=O)[O-])cc1)c1csc(-c2cccs2)n1 | < 5000 µg/mL

----------
test: Solubility of compounds in various solvents; assay type: physicochemical; conditions: 50 °C, organic solvent or mixture; THF, 50-55° C.; read-out: Observation: solubility / saturation concentration (S.C.)

Compound | solubility
COC(=O)N[C@@H](Cc1ccccc1)C(=O)N[C@@H](Cc1ccc([N+](=O)[O-])cc1)c1csc(-c2cccs2)n1 [Compound F-3] | ~100 mg/mL
